In this section we review reported pKd values for a set of binders.
Target: T1, recombinant human Nectin4-His protein (human, UniProt Q96NY8 32-349)
T1 construct: Analyte of the SPR assay; May be the same protein as m12; also called human Nectin-4 ECD; not shown: His tag
T1 sequence: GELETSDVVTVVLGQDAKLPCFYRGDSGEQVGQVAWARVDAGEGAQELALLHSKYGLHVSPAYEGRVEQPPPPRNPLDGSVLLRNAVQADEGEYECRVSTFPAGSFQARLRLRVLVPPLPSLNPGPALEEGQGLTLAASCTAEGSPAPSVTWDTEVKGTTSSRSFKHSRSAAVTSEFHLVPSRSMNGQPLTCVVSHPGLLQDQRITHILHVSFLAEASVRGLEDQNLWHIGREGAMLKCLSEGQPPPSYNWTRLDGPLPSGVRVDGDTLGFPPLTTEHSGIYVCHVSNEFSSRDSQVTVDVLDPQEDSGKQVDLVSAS
Test: SPR (BIAcore 3000), antibody captured by anti-human IgG, Nectin4-His as analyte
Please treat pKd as minus the base-10 logarithm of the molar concentration.

Some binders with recorded pKd:
>  <BINDER>
N4_mAb 5 (antibody, human IgG1, V domains shown, Tested as chimera (human IgG1/kappa constants); not shown: human IgG1 constant region (Uniprot P01857); human Kappa light chain constant region (UniProt P01834)) VH: EVQLQQSGPDLVKPGASVKISCKASGYSFTGHYMHWVKQSHGKSLEWIGRVNPNNGGSSYNQKFKDKAILTVDKSSTTAYMELRSLTSEDSAVYYCARDPLGGSYGFAYWGQGTLVTVSA VL: DIVLTQSPASLAVSLGQRATISCRASQSVTTSSYSYMHWYQQKPGQPPKLLIKYASNLESGVPARFSGSGSGTDFTLNIHPVEEEDTATYYCQHSWEIPYTFGGGTKLEMK

>  <ASSAY VALUE>
8.80

$$$$
>  <BINDER>
N4_mAb 7 (antibody, human IgG1, V domains shown, Tested as chimera (murine variable regions, human IgG1/kappa constants); not shown: human IgG1 constant region (Uniprot P01857); human Kappa light chain constant region (UniProt P01834)) VH: QVQLQQSGPELVKPGASVKMSCKASGYTFTTYYIHWVKQRPGQGLEWIGWIYPGNAGIKSNEKFKGKTTLTADKSSSTAYMLLSSLTSEDSAIYFCARGVYFFDYWGQGTTLTVSS VL: SIVMTQTPKFLLVSAGDRVTITCKASQSVNNDVSWFQQKPGQSPKLLIYYASNRYTGVPDRFSGSGYGTDFTFTITTVQAEDLAVYFCQQDYSSPYTFGGGTKLEIK

>  <ASSAY VALUE>
9.41

$$$$

Asked: # return recorded pKd for input N4_mAb 8 (antibody, human IgG1, V domains shown, Tested as chimera (murine variable regions, human IgG1/kappa constants); not shown: human IgG1 constant region (Uniprot P01857); human Kappa light chain constant region (UniProt P01834)) VH: QVQLQQSGPVLVKPGASVRISCKASGYTFTSYYIHWVKQRPGQGLEWIGWIYPGNVNTKYNENFRDKATLTADKSSSTSYMQLSSLTSEDSAVYFCARGIYYFDYWGQGTTLTVSS VL: IIVMTQTPKFLLVSAGDRVTITCKASQSVNNDVAWYQEKPGQSPKLLIYYASNRDTGVPDRFTGSGYGTDFTFTISTVQAEDLAVYFCHQDYSSPFTFGSGTKLEIK
Given back: 9.43
